// data source = PubChem BioAssay (NCI)

- Test system: SK-MEL-5 melanoma
- measurement-description: NCI tumour cell line growth inhibition, 48 h
Reported TGI values for a set of molecules

// recorded TGI for O=C1C=CC(=O)c2c(O)c(N[C@@H](Cc3ccccc3)C(=O)OCc3ccccc3)c(Cl)c(O)c21 : 8.18 µM

====

Reported TGI values for a set of compounds
- System: NCI-H460 lung
- measurement-description: NCI tumour cell line growth inhibition, 48 h

// recorded TGI for COc1ccc(C2NC3=C(CCCC3)C3(C#N)C(=O)N=C(N)C23C#N)cc1 (stereo not given) : > 100 µM

// recorded TGI for O=C1CC(CC(OCc2ccccc2)C(COCc2ccccc2)OCc2ccccc2)CC(=O)N1 (stereo not given) : > 100 µM

// recorded TGI for COc1ccc2c(c1)C(=O)c1c-2n(CCCN2CCOCC2)c(=O)c2ccccc12 : 3.58 µM

// recorded TGI for CSCC[C@H]1C(=O)N=C(N)N1C(=O)OCc1ccccc1 : > 100 µM

// recorded TGI for Cc1c(C)c2ccc(OC/C=C3\CCC(=O)O3)cc2oc1=O : 35.6 µM

// recorded TGI for C[C@H](CSC(=O)c1ccccc1)C(=O)N1c2ccccc2C[C@H]1C(=O)O : > 10 µM

====

Reported TGI values for a set of compounds
- Test system: LOX IMVI melanoma
- measurement-description: NCI tumour cell line growth inhibition, 48 h

# example entries with known answers
compound: COc1cc(Oc2c(O)c(C)c(OC)c(C(C)=O)c2O)c(C(C)=O)c(O)c1C
assay-target: LOX IMVI melanoma
TGI: > 100 µM

compound: COC(=O)c1cc(-c2c[nH]cc2C(=O)OCc2ccccc2)cn1S(=O)(=O)c1ccc(C)cc1
assay-target: LOX IMVI melanoma
TGI: > 100 µM

compound: CN(C)c1ccc(N=Nc2c([O-])ccc3ccccc23)cc1.[C-]#[O+].[C-]#[O+].[Ir]
assay-target: LOX IMVI melanoma
TGI: 40.5 µM

compound: CCOc1ccc(NC(=O)CC2SC(N)=NC2=O)cc1 (stereo unspecified)
assay-target: LOX IMVI melanoma
TGI: > 100 µM

compound: CCc1c2c(nc3cccc(N)c13)-c1cc3c(c(=O)n1C2)COC(=O)[C@]3(O)CC
assay-target: LOX IMVI melanoma
TGI: 0.182 µM

compound: CC(C)(C)OC(=O)CN1CCNCCN(CC(=O)OC(C)(C)C)CC1
assay-target: LOX IMVI melanoma
TGI: > 100 µM

// recorded TGI for NCCCc1ccc2oc3ccccc3c2c1 : 39.9 µM

// recorded TGI for N#Cc1ccc(OCc2ccc3nc(-c4ccccc4)c(Cl)nc3c2)cc1 : > 100 µM

// recorded TGI for COc1cc2c(c(OC)c1OC)C(=O)[C@H]1OC(=O)N[C@@H]21 : > 100 µM

// recorded TGI for Nc1nc(Nc2cccc(F)c2)nc2ccccc12 : 29 µM

// recorded TGI for CCN1C(=O)N(CC)C2C1NN=c1s/c(=C3\C(=O)N(C)c4ccccc43)c(=O)n12 (stereo unspecified) : > 100 µM

====

- Tested on: NCI-H522 lung
- measurement-description: NCI tumour cell line growth inhibition, 48 h
Reported TGI values for a set of compounds
Give just the number in µM; leave the unit off.

structure-notation: CCOC(=O)N1CCN(S(=O)(=O)c2oc(-c3ccc(Cl)cc3)nc2C#N)CC1
TGI (µM): 3.07
//
structure-notation: Cc1c2ccncc2c(C)c2c1[nH]c1ccc(OC(C)(C)C)cc12
TGI (µM): 5.81

Below: the item to evaluate.
// recorded TGI for CN(C)CCNC(=O)c1ccc(Cl)c2c(Nc3ccc(S(N)(=O)=O)cc3)c3ccccc3nc12 : 1.94
